- target.or.system: AChE from human erythrocytes (Homo sapiens, UniProt P22303)
- Construct: AChE from human erythrocytes; purchased Sigma Aldrich; host or cells: human erythrocytes (natural source)
- Sequence (P22303 other isoform, or with tags, fused parts or gaps): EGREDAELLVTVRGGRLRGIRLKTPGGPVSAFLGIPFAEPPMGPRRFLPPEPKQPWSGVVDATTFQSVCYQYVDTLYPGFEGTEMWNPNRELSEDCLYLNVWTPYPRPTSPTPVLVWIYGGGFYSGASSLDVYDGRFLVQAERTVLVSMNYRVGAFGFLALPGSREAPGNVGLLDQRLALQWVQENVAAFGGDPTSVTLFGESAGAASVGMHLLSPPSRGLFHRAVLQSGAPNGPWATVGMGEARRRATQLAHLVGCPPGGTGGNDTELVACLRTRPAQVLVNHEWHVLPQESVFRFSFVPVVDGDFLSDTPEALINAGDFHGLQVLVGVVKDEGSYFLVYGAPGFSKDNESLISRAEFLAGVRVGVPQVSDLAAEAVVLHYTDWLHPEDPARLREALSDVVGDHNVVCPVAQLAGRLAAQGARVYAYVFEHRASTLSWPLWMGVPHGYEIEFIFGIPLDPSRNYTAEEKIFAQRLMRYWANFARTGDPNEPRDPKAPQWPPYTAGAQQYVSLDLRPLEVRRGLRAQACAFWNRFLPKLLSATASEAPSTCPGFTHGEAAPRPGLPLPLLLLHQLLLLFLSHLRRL
- protocol.description: biochemical
- applied.conditions: n = 2; read-out: (h)AChE IC50
pIC50: −log10 of the molar value.
quantity: pIC50

- COc1cc(N)c(Cl)cc1C(=O)CCC1CCN(Cc2cccc(C)c2)CC1.O=C(O)/C=C/C(=O)O: 7.47
- COc1cc(N)c(Cl)cc1C(=O)CCC1CCN(Cc2ccc(F)cc2)CC1: 7.11
- COc1cc(N)c(Cl)cc1C(=O)CCC1CCN(Cc2ccccc2F)CC1: 6.99
- COc1cc(N)c(Cl)cc1C(=O)CCC1CCN(Cc2cccc(F)c2)CC1: 7.04
- COc1cc(N)c(Cl)cc1C(=O)CCC1CCN(Cc2ccc(C)cc2)CC1: 6.35
- COc1cc(N)c(Cl)cc1C(=O)CCC1CCN(Cc2cc(N)ccc2F)CC1: 6.82
- COc1cc(N)c(Cl)cc1C(=O)CCC1CCN(Cc2cccc(N)c2)CC1: 7.39
- COc1cc(N)c(Cl)cc1C(=O)CCC1CCN(Cc2ccccc2O)CC1: 7.24
- COc1cc(N)c(Cl)cc1C(=O)CCC1CCN(Cc2ccccc2C)CC1: 6.65
